- protocolDetails: SPR (Biacore) Protein A mAb capture, Compound A injected
- protocolConditions: 37° C., binding to Compound A, apparent affinity, for rank ordering only, read-out: KD
pKd: −log10 of the molar value.
We begin with a simple list: items and their reported pKd.
reportedMetric: pKd

>>> result("26D5-296-G03-mAb: human IgG1f/kappa mAb; VH SEQ ID NO: 72, VL SEQ ID NO: 88 (antibody, V domains shown) VH: EVQLVESGGGLIQPGGSLRLSCAASGFQVSSNYMSWVRQAPGKGLEWVSFIYPGGRTYYADSVKGRFTISRDNSKNTLYLQMNSLRAEDTAVYYCARAGFGGGDYWGQGTLVTVSS VL: DIQMTQSPSSVSASVGDRVTITCRASQGISSNLAWYQQKPGKAPKLLIYAASSLQSGVPSRFSGSGSGTDFTLTISSLQPEDFATYYCQQANSFPLTFGGGTKVEIK")
9.21
>>> result("26D5-296-D08-mAb: human IgG1f/kappa mAb; VH SEQ ID NO: 69, VL SEQ ID NO: 95 (antibody, V domains shown) VH: EVQLVESGGGLIQPGGSLRLSCAASGFTVSSNYMSWVRQAPGKGLEWVSFIYPGGRTYYADSVKGRFTISRDNSKNTLYLQMNSLRAEDTAVYYCARGGFGGGDYWGQGTLVTVSS VL: DIQMTQSPSSVSASVGDRVTITCRASQYIESNLAWYQQKPGKAPKLLIYAASSLQSGVPSRFSGSGSGTDFTLTISSLQPEDFATYYCQQANSFPLTFGGGTKVEIK")
9.23
>>> result("26D5-075017-343-F04-mAb: human IgG1f/kappa mAb; VH SEQ ID NO: 60, VL SEQ ID NO: 91 (antibody, V domains shown) VH: EVQLVESGGGLIQPGGSLRLSCAASGFTVSSNAMSWVRQAPGKGLEWVSFIYPGGRTYYADSVKGRFTISRDNSKNTLYLQMNSLRAEDTAVYYCARAGFGGGDYWGQGTLVTVSS VL: DIQMTQSPSSVSASVGDRVTITCRASQGISSNLAWWQQKPGKAPKLLIYAASSLQSGVPSRFSGSGSGTDFTLTISSLQPEDFATYYCQQANSFPLTFGGGTKVEIK")
9.96
